Provenance of the data: patent US6635670B2

subject.of.test: recombinant human secreted phospholipase A2 (Homo sapiens)
Sequence (P14555 21-144): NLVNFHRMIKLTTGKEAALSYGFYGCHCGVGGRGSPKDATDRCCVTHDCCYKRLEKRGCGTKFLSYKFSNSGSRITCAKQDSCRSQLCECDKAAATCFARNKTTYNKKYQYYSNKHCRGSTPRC
test.name: chromogenic assay for inhibitors of recombinant human secreted phospholipase A2
Type: biochemical
run.conditions: diheptanoyl thio-PC substrate, pH 7.5, 40° C. for 30 minutes, absorbance at 405 nanometers; read-out: Inhibition of human secreted PLA2 IC50 ± mean deviation (3-4 tests)
pIC50: −log10 of the molar value.
measurement.type: pIC50

{"smiles.string": "CCc1c(C(=O)C(N)=O)c2c(OCC(=O)N[C@@H](Cc3ccccc3)C(=O)OC)cccc2n1Cc1ccccc1", "reported.measurement": 6.18}
{"smiles.string": "CCc1c(C(=O)C(N)=O)c2c(OCC(=O)NC(C(=O)O)C(=O)O)cccc2n1Cc1ccccc1", "reported.measurement": 7.35}
{"smiles.string": "CCc1c(C(=O)C(N)=O)c2c(OCC(=O)N[C@H](C(=O)OC)[C@@H](C)CC)cccc2n1Cc1ccccc1", "reported.measurement": 6.78}
{"smiles.string": "CCc1c(C(=O)C(N)=O)c2c(OCC(=O)N[C@@H](C)C(=O)O)cccc2n1Cc1ccccc1", "reported.measurement": 7.23}
{"smiles.string": "CCc1c(C(=O)C(N)=O)c2c(OCC(=O)N[C@@H](C)C(=O)OC)cccc2n1Cc1ccccc1", "reported.measurement": 6.27}
{"smiles.string": "CCc1c(C(=O)C(N)=O)c2c(OCC(=O)N[C@H](C(=O)O)C(C)C)cccc2n1Cc1ccccc1", "reported.measurement": 7.44}
{"smiles.string": "CCc1c(C(=O)C(N)=O)c2c(OCC(=O)N[C@@H](CC(C)C)C(=O)O)cccc2n1Cc1ccccc1", "reported.measurement": 7.55}
